Molecular target: Glutamate NMDA receptor; GRIN1/GRIN2B (Homo sapiens, UniProt Q05586+Q13224)
Test: Antagonist activity at wild type NR1/NR2B receptor expressed in Xenopus oocytes assessed as ratio of residual current induced by agonist in presence of compound to residual current induced by agonist alone at 10 uM by two-electrode voltage-clamp method
Type: functional, cell-based
Conditions: Oocyte
Label scheme for Ratio: lower than 0.9 is no (0), 0.9 and above is yes (1).

>  <smiles.entry>
O=C1N=C(N2CCN(c3cccc(Cl)c3)CC2)S/C1=C\c1ccc(O)cc1

>  <class>
yes (1)

$$$$
>  <smiles.entry>
CCN1CCN(C2=NC(=O)/C(=C/c3ccc(O)cc3)S2)CC1

>  <class>
yes (1)

$$$$
>  <smiles.entry>
COc1cc(/C=C2/SC(N3CCN(Cc4ccccc4)CC3)=NC2=O)ccc1O

>  <class>
no (0)

$$$$
>  <smiles.entry>
COc1cc(/C=C2\SC(N3CCN(c4ccc(C)cc4)CC3)=NC2=O)ccc1O

>  <class>
yes (1)

$$$$

====

Molecular target: Glutamate NMDA receptor; GRIN1/GRIN2B (Homo sapiens, UniProt Q05586+Q13224)
Experiment: Ratio of compound IC50 to ifenprodil IC50 for wild type NR1/NR2B receptor by radioligand binding assay
Assay type: protein-complex assay
Each item that follows carries a reported Ratio IC50.

>  <compound>
Cc1nnc(SCCCN2CCC(Cc3ccccc3)CC2)s1

>  <Ratio IC50>
58

$$$$
>  <compound>
C(#Cc1ccccc1)CCN1CCC(Cc2ccccc2)CC1

>  <Ratio IC50>
43

$$$$
>  <compound>
O=C1CNC(=O)N1CCCCCN1CCC(Cc2ccccc2)CC1

>  <Ratio IC50>
440

$$$$
>  <compound>
Oc1ccc2[nH]c3c(c2c1)CN(CCCCc1ccccc1)CC3

>  <Ratio IC50>
0.45

$$$$
>  <compound>
Oc1nc2cc(C#CCN3CCC(Cc4ccccc4)CC3)ccc2[nH]1

>  <Ratio IC50>
0.048

$$$$
>  <compound>
O=c1[nH]c2ncc(C#CCN3CCC(Cc4ccccc4)CC3)cc2o1

>  <Ratio IC50>
0.45

$$$$
>  <compound>
Cn1c(O)nc2cc(C#CCN3CCC(Cc4ccccc4)CC3)ccc21

>  <Ratio IC50>
560

$$$$
>  <compound>
Oc1ccc(CCCCN2CCc3c([nH]c4ccccc34)C2)cc1

>  <Ratio IC50>
5

$$$$
>  <compound>
Oc1nc2cc(C#CCN3CCC(Cc4ccc(F)cc4)CC3)c[nH]c-2n1

>  <Ratio IC50>
0.03

$$$$
>  <compound>
C[C@@H](CN1CCC(Cc2ccccc2)CC1)[C@@H](O)c1ccc(O)cc1

>  <Ratio IC50>
0.3

$$$$
>  <compound>
Oc1ccc2c(c1)OC[C@@H](N1CCC(O)(c3ccccc3)CC1)[C@H]2O

>  <Ratio IC50>
11

$$$$
>  <compound>
C(#Cc1ccc2[nH]ccc2c1)CN1CCC(=Cc2ccccc2)CC1

>  <Ratio IC50>
140

$$$$
>  <compound>
Oc1nc2cc(C#CCN3CCC(=Cc4ccc(F)cc4)CC3)ccc2[nH]1

>  <Ratio IC50>
2.5

$$$$
>  <compound>
Nc1ccc(C#CCCN2CCC(Cc3ccccc3)CC2)cc1

>  <Ratio IC50>
4

$$$$
>  <compound>
O=C1CNC(=O)N1CCCN1CCC(Cc2ccccc2)CC1

>  <Ratio IC50>
250

$$$$
>  <compound>
O=c1[nH]c2cc([S+]([O-])CCN3CCC(Cc4ccc(F)cc4)CC3)ccc2o1 (stereo unspecified)

>  <Ratio IC50>
0.03

$$$$
